System Under Test: Gonadotropin-releasing hormone receptor (Homo sapiens)
Sequence (P30968 whole entry): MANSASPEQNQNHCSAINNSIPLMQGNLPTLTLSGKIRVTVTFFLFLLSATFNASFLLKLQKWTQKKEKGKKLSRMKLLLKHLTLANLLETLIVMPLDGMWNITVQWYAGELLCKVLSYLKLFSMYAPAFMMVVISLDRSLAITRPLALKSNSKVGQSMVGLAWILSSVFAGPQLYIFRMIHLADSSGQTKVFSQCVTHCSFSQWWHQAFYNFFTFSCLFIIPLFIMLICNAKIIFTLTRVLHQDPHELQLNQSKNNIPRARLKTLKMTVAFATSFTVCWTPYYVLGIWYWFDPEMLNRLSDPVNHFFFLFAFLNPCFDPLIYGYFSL
Recorded pKi by entry
pKi here: minus log base 10 of the concentration, concentration in moles per litre.

CCOC(=O)c1cn(Cc2ccccc2F)c2c(F)c(-c3ccc(OCC(C)C)cc3)c(CN(C)CCc3ccccn3)n2c1=O
8.05

Lookup: Tell me pKi reported for `CCOC(=O)c1cn(Cc2ccccc2F)c2c(F)c(-c3cccc(OC)c3)c(CN(C)Cc3ccccc3)n2c1=O`
Found: 5.59

Lookup: Tell me pKi reported for `CCOC(=O)c1cn(Cc2ccccc2F)c2c(F)c(-c3ccc(OCC(C)C)cc3)c(CN(C)Cc3ccco3)n2c1=O`
Found: 7.04
